B1: tRNA (parent)
chain: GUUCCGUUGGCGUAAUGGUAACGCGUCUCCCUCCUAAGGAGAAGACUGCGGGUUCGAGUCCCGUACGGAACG

# Variants of: B1
# test_method_notes: yeast fitness, log relative to wild type (ln ratio); higher = fitter; tRNA-Arg(CCU), competitive growth, 37 C, 1 M NaCl
value_kind: yeast fitness (ln)
One number for each entry.

# annotated cases, reported yeast fitness (ln) shown
Consider the variant U2C G6U C46U A69G A70U C71U and give its measured yeast fitness (ln). -0.216

Recorded yeast fitness (ln) for U2G C27U C46U C66U C71U , please? -0.214

Recorded yeast fitness (ln) for G6U C27U , please? -0.111

Report yeast fitness (ln) for each item below.
1. G1A U2G A43C C46U A69G C71U
2. U2C A43C C46U C66A A69G A70U C71U
3. U2G C27U C66A A69G C71U
4. G1A U2C G6A C66U A69G A70G

[-0.18, -0.374, -0.197, -0.0913]

Could you tell me yeast fitness (ln) for each of these variants? They are listed below.
1. G1A C27U A43C C66U A69G C71U
2. G6U C27U A43C C66A A69G C71U
3. U2C A43C C46U C66A

[-0.343, -0.333, 0.0909]
